Reference source for all entries: the supplement of paper PMC7877785

Experiment: self-splicing fitness, log relative to wild type (ln ratio); higher = more splicing; Tetrahymena group I intron in knt gene, E. coli kanamycin selection, DiMSum; sequences stand for … in CUCUCU…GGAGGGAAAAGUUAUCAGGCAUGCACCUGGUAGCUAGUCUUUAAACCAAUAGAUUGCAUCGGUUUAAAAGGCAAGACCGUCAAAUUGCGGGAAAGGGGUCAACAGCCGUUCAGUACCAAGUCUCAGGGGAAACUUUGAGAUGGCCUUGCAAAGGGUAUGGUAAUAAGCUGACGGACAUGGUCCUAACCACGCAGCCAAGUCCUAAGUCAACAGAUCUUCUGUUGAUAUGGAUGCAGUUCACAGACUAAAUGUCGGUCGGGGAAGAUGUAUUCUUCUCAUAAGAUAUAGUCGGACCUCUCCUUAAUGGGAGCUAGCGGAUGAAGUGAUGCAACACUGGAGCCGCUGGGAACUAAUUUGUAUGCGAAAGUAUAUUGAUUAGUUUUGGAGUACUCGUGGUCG;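 further: selection with 25 µg/mL kanamycin versus none on LB agar overnight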
Settings: 37 °C
METRIC NAME: self-splicing fitness (ln)
One number for each entry.

BIOSEQUENCE: AGUGAGCAAUAUUACGGGUA
self-splicing fitness (ln): -1.61
//
BIOSEQUENCE: UCCCAGCAAUAUUACGAACA
self-splicing fitness (ln): -0.139
//
BIOSEQUENCE: GAUCAGCAAUAUUACGAUAG
self-splicing fitness (ln): 0.475
//
BIOSEQUENCE: AUCUAGCAAUAUUACGGUGU
self-splicing fitness (ln): -0.462
//
BIOSEQUENCE: GGCCAGCAAUAUUACGAAUU
self-splicing fitness (ln): -1.03

Fill in self-splicing fitness (ln) for each of the 6 sequences listed.
1. AUUCAGCAAUAUUACGUCCU
2. ACCUAGCAAUAUUACGUUAG
3. GACCAGCAAUAUUACGGCAC
4. CACCAGCAAUAUUACGUCUA
5. UGUUAGCAAUAUUACGCCCC
6. CCAAAGCAAUAUUACGCUCA

Reply:
-0.0115
-2.69
0.491
-1.79
0.337
-2.2

Fill in self-splicing fitness (ln) for each of the 6 sequences listed.
1. UCGCAGCAAUAUUACGAGGU
2. AUUCAGCAAUAUUACGCUCU
3. GUACAGCAAUAUUACGCCUG
4. UUUCAGCAAUAUUACGUCUG
5. GGCGAGCAAUAUUACGCUUG
6. UUUUAGCAAUAUUACGGGAC

Reply:
1. -2.85
2. 0.683
3. -0.634
4. -1.87
5. -2.71
6. -1.83

Fill in self-splicing fitness (ln) for each of the 5 sequences listed.
1. UUUAAGCAAUAUUACGGUCA
2. GUGAAGCAAUAUUACGGGCU
3. CCCAAGCAAUAUUACGUGCU
4. CGCCAGCAAUAUUACGAUGC
5. CCACAGCAAUAUUACGCAGU

Reply:
1: -0.266; 2: -0.869; 3: -2.6; 4: -1.75; 5: -2.92

* * *

Experiment: self-splicing fitness, log relative to wild type (ln ratio); higher = more splicing; Tetrahymena group I intron in knt gene, E. coli kanamycin selection, DiMSum; sequences stand for … in CUCUCU…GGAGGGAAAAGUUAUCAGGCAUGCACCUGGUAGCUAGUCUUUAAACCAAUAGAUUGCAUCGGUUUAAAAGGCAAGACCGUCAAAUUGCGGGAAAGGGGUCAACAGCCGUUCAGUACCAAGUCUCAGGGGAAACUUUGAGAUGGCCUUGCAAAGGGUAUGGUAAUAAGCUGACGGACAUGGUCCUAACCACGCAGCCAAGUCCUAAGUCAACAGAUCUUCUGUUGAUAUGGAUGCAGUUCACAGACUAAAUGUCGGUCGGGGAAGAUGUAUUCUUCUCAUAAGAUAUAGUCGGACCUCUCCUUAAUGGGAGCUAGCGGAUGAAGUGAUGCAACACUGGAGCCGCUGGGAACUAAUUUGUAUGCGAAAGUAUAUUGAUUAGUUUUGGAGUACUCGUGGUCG
Settings: 37 °C
Answer each item with its documented self-splicing fitness (ln).
Answers are plain numbers.

BIOSEQUENCE: UUCAAGCAAUAUUACGGUUC
self-splicing fitness (ln): -2.78

BIOSEQUENCE: GCUAAGCAAUAUUACGUAGC
self-splicing fitness (ln): -2.16

BIOSEQUENCE: GAAAAGCAAUAUUACGUUCU
self-splicing fitness (ln): -3.19

Fill in self-splicing fitness (ln) for each of the 4 sequences listed.
1. AAUUAGCAAUAUUACGUACA
2. GUCUAGCAAUAUUACGCCCU
3. CUGAAGCAAUAUUACGGGGG
4. AGAUAGCAAUAUUACGGUCC

Reply:
1. -0.498
2. -0.472
3. -1.28
4. -1.03
